A short record of AC50 observed with Kappa-type opioid receptor (Homo sapiens) follows.
Sequence (P41145 whole entry): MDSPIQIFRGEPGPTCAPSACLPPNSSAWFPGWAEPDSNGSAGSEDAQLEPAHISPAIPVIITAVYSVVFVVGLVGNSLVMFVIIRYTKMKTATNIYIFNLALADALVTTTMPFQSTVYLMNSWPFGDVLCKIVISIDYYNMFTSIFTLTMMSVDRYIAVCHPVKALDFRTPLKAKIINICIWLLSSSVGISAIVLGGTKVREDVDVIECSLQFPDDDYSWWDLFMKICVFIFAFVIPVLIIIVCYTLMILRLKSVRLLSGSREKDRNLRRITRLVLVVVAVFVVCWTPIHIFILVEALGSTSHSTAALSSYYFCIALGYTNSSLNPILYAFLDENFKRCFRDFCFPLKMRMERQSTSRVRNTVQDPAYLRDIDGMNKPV

Please look at the items below and tell me AC50 for each one, in order.
1. Nc1ccc(S(=O)(=O)Nc2ncccn2)cc1 [SULFADIAZINE]
2. CC1=C(C(=O)O)N2C(=O)[C@@H](NC(=O)[C@H](N)C3=CCC=CC3)[C@H]2SC1 [CEPHRADINE]
3. C=CC1=C(C(=O)O)N2C(=O)[C@@H](NC(=O)/C(=N\O)c3csc(N)n3)[C@H]2SC1
4. COc1cc(C(=O)NCc2ccc(OCCN(C)C)cc2)cc(OC)c1OC [TRIMETHOBENZAMIDE]
5. CC1NCCOC1c1ccccc1 (centres undefined) [PHENMETRAZINE]
6. O=C1CN=C(c2ccccc2Cl)c2cc([N+](=O)[O-])ccc2N1 [CLONAZEPAM]
7. CC1Cc2ccccc2N1NC(=O)c1ccc(Cl)c(S(N)(=O)=O)c1 (centres undefined) [INDAPAMIDE]

1: > 10 µM; 2: > 30 µM; 3: > 10 µM; 4: > 30 µM; 5: > 10 µM; 6: > 10 µM; 7: > 10 µM

Please look at the items below and tell me AC50 for each one, in order.
1. CNCCc1ccccn1 [BETAHISTINE]
2. CC[N+](CC)(CCNC(=O)C(=O)NCC[N+](CC)(CC)Cc1ccccc1Cl)Cc1ccccc1Cl [AMBENONIUM]

["> 30 µM", "0.7 µM"]
